Origin of values: ChEMBL document CHEMBL1833852

Listed below: Ki values for each entry.
Target: Protease (Human immunodeficiency virus 1)
Sequence (Q9YQ12 whole entry): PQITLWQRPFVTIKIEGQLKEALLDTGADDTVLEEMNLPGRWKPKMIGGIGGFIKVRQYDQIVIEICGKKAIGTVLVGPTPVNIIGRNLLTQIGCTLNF
Give just the number in nM; leave the unit off.

Field: example entries. Status: answers known.
# MOLECULE, UNIT OF MEASURE, RESULT NUMBER
records = [
    ("CC(C)(C)OC(=O)N[C@@H](Cc1ccccc1)[C@H](O)CN1CCCc2ccccc2S1(=O)=O", "nM", 470),
    ("C[C@H]1Cc2ccccc2S(=O)(=O)N(CC(O)C(Cc2ccccc2)NC(=O)Oc2ccccc2)C1 (single isomer, unassigned)", "nM", 350),
]

Okay, next one:
Per the records, this molecule ( CCOC(=O)NC(Cc1ccccc1)C(O)CN1C[C@@H](C)Cc2ccccc2S1(=O)=O (single isomer, unassigned) ) has Ki equal to 34
